Would you mind telling me the reported ELISA_avg of each entry?
Biological target: T1, BCMA (Homo sapiens (Human), UniProt Q02223 1-54, limits assumed)
T1 sequence: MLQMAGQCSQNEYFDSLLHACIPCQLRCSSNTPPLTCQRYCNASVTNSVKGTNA
Test: ELISA, format not described
Set-up: unit not given here
Give bare numbers.

Consider the following illustrative entries.
D-domain SEQ ID NO: 180 (designed binder) MGSWAEFWDRLDAIDSRLNALGGSEAELAAFEKEIAAFESELQAYKGKGNPEVEYLREWAAYIRGYLQAYRHN ... 18.2
D-domain SEQ ID NO: 202 (designed binder) MGSWSEFWDRLTAIRVRLDALGGSEAELAAFEKEIAAFESELQAYKGKGNPEVEKLRYTAAHIRKFLQAYRHN ... 16.1
D-domain SEQ ID NO: 121 (designed binder) MGSWSEFEERLAAIGSRLFALGGSEAELAAFEKEIAAFESELQAYKGKGNPEVETLRFDAALIRIYLQAYRHN ... 4.85
D-domain SEQ ID NO: 304 (designed binder) MGSWSYFKYGLATIKEKLEALGGSEAELADFETWIAMFEKQLQEYKGKGNPEVEALRKEAAAIRDELQAYRHN ... 18.1

Could you now look at the following binder, please?
Query string: Identify measured ELISA_avg associated with D-domain SEQ ID NO: 298 (designed binder) MGSWSYFKYGLAIIKIRLEALGGSEAELADFERWIAAFEHDLQYYKGKGNPEVEALRKEAAAIRDELQAYRHN
Result string: 13.3
